target: SMARCA2 (Homo sapiens); construct: endogenous in cells; host or cells: HT1080 (CRISPR HiBiT knock-in clone, generated in house); test: SMARCA2 HiBiT degradation assay (cellular); type: cell-based; settings: 6 h incubation; HiBiT-tagged SMARCA2, luminescence read-out; table head names A549; read-out: HiBit A549 SMARCA2 IP (nM) 6 h
Sequence (P51531 whole entry): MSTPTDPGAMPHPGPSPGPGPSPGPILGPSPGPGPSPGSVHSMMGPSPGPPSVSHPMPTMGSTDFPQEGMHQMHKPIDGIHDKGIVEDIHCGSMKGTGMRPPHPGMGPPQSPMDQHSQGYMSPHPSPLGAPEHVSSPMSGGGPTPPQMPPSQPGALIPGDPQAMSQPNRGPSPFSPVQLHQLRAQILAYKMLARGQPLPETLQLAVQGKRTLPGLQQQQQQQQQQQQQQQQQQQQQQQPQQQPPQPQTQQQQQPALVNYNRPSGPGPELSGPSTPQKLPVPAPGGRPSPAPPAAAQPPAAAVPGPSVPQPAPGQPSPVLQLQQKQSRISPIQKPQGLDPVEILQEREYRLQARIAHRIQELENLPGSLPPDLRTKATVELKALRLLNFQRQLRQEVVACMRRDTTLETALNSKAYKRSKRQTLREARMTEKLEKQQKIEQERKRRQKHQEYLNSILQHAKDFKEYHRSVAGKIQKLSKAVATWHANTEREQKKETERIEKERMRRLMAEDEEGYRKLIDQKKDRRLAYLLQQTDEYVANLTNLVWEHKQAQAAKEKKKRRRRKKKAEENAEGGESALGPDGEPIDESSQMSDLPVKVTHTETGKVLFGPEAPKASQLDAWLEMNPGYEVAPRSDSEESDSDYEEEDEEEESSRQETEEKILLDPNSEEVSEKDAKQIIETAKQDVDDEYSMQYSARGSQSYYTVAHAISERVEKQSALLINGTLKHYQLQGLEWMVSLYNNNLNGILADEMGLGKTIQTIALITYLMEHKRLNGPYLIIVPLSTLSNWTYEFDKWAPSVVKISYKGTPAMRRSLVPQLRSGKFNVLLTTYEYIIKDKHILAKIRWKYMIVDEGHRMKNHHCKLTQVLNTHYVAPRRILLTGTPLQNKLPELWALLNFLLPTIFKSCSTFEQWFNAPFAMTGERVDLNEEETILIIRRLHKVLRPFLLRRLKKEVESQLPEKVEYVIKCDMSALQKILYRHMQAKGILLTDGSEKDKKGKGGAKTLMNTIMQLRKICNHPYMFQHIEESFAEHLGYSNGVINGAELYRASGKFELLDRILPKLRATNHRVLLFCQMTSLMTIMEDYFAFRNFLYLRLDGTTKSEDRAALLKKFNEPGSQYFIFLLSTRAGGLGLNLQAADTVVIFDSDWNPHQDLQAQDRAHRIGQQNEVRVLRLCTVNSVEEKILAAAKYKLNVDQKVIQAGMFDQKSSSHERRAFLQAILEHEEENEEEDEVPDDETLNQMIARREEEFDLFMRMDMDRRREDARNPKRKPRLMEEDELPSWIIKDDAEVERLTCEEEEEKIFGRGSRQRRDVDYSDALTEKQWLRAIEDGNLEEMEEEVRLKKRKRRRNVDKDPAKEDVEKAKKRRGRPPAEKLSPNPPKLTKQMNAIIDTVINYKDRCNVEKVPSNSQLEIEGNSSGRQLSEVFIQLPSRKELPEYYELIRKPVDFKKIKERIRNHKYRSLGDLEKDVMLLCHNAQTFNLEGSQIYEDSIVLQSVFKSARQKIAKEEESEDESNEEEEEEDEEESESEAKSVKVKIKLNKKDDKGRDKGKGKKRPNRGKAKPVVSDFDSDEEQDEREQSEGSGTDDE
// log10(DC50) lookup, one value per entry
Would you kindly interpret these values as log10 of DC50 expressed in nM?

Solved entries (count: 2):
Nc1nnc(-c2ccccc2O)cc1N1CCC2(CC1)CN(c1cccc(OCCN3CCN(C(=O)C4CCN(c5ccc6c(c5)C(=O)N(C5CCC(=O)NC5=O)C6=O)CC4)CC3)c1)CCO2 (centres unmarked); 2.44
Nc1nnc(-c2ccccc2O)cc1N1CC2CCC(C1)N2c1cccc(CN2CCC(C(=O)N3CCC(Oc4ccc5c(c4)C(=O)N(C4CCC(=O)NC4=O)C5=O)CC3)CC2)c1 (racemic); 0.85

Proceeding to the next molecule to report its log10(DC50).
So what log10(DC50) did CC(C)(Nc1cccc2c1C(=O)N(C1CCC(=O)NC1=O)C2=O)c1cn(CCCCCCCCCN2CCN(c3ccc(N4CCCC(Oc5cc(-c6ccccc6O)nnc5N)C4)cc3)CC2)nn1 (centres unmarked) get with SMARCA2 (Homo sapiens)?
1.74

###

// DC50 lookup, one value per entry
target: SMARCA2 (Homo sapiens); construct: endogenous in cells; host or cells: HT1080 (CRISPR HiBiT knock-in clone, generated in house); assay: SMARCA2 HiBiT degradation assay (cellular); format: cell-based; conditions: 6 h incubation; HiBiT-tagged SMARCA2, luminescence read-out; table head names A549; read-out: HiBit A549 SMARCA2 IP (nM) 6 h
Give the value in nM but do not write nM after it.

Solved entries (count: 2):
Nc1nnc(-c2ccccc2O)cc1N1CC2CCC(C1)N2c1cccc(OCCN2CCN(C(=O)N3C[C@@H]4CN(c5ccc6c(c5)C(=O)N(C5CCC(=O)NC5=O)C6=O)C[C@@H]4C3)CC2)c1 (relative stereo); 108
Nc1nnc(-c2ccccc2O)cc1OC1CCCN(c2ccc(N3CCN(CCCCCCCCCc4ccnc(CNc5cccc6c5C(=O)N(C5CCC(=O)NC5=O)C6=O)c4)CC3)cc2)C1 (stereo not shown); 802

Tell me the measured DC50 of Nc1nnc(-c2ccccc2O)cc1N1CC2CCC(C1)N2c1cccc(OCCN2CCN(C(=O)N3CCC(Oc4cccc5c4C(=O)N(C4CCC(=O)NC4=O)C5=O)CC3)CC2)c1 (racemic) , please.
46

And what about the molecule Nc1nnc(-c2ccccc2O)cc1N1CC2CCC(C1)N2c1cccc(OCCN2CCN(C(=O)CCCNC(=O)COc3cccc4c3C(=O)N(C3CCC(=O)NC3=O)C4=O)CC2)c1 (racemic) ?
1440

And what about the molecule Nc1nnc(-c2cc(F)ccc2O)cc1OC1CCCN(c2ccc(N3CCN(C(=O)CCCCCCCCn4cc(CNc5cccc6c5C(=O)N(C5CCC(=O)NC5=O)C6=O)nn4)CC3)cc2)C1 (stereo not shown) ?
82

And what about the molecule Nc1nnc(-c2ccccc2O)cc1N1CC2CCC(C1)N2c1cccc(CN2CCC(C(=O)NC3CCN(c4ccc5c(c4)C(=O)N(C4CCC(=O)NC4=O)C5=O)CC3)CC2)c1 (racemic) ?
23

And what about the molecule CN(C(=O)C1CCN(Cc2cccc(N3C4CCC3CN(c3cc(-c5ccccc5O)nnc3N)C4)c2)CC1)C1CCN(c2ccc3c(c2)C(=O)N(C2CCC(=O)NC2=O)C3=O)CC1 (racemic) ?
11

And what about the molecule Nc1nnc(-c2ccccc2O)cc1N1CC2CCC(C1)N2c1cccc(CN2CCN(C(=O)C3CCN(c4ccc5c(c4)C(=O)N(C4CCC(=O)NC4=O)C5=O)CC3)CC2)n1 (racemic) ?
27

And what about the molecule Nc1nnc(-c2ccccc2O)cc1N1CCC(CNC(=O)CCNc2cccc3c2C(=O)N(C2CCC(=O)NC2=O)C3=O)(c2ccccc2)CC1 (stereo not shown) ?
1430

And what about the molecule Nc1nnc(-c2ccccc2O)cc1N1CCC(C(=O)NCC2CCN(C(=O)C3CCN(c4ccc5c(c4)C(=O)N(C4CCC(=O)NC4=O)C5=O)CC3)CC2)(c2ccccc2)CC1 (stereo not shown) ?
59
